molecular target: CYP2C9 (Homo sapiens); type: biochemical; details: clinical drugs 10 μmol/L, DDAM 10 μmol/L, HLM, 96-well microplate
Sequence (P11712 whole entry): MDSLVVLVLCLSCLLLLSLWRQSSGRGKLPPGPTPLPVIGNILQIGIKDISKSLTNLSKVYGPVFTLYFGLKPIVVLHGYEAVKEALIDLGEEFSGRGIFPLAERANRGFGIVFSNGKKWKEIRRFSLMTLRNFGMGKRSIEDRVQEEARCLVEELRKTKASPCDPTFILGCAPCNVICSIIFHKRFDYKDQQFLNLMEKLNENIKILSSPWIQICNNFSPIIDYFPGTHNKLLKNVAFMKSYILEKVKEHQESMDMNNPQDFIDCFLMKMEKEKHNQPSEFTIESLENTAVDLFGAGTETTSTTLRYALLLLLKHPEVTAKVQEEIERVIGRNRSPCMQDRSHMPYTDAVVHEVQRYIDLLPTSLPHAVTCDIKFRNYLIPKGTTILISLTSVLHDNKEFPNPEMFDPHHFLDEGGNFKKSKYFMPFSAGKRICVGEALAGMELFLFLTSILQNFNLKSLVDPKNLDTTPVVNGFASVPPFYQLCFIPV
measurement.kind: Modulation of CYP2C9 activity in visual high-throughput screen

Worked cases, answers included:
compound=NCCc1ccc(O)c(O)c1 result=activators
compound="Cc1c(OCC(F)(F)F)ccnc1C[S+]([O-])c1nc2ccccc2[nH]1 (stereo not shown)" result=activators
compound=C[C@]12CC[C@@H]3c4ccc(O)cc4CC[C@H]3[C@@H]1CC[C@@H]2O result=activators
compound="COc1ccc2[nH]c([S+]([O-])Cc3ncc(C)c(OC)c3C)nc2c1 (stereo not shown)" result=activators

Ask | Param readout = Modulation of CYP2C9 activity in visual high-throughput screen; param system = CYP2C9 (Homo sapiens); param query = COc1ccnc(C[S+]([O-])c2nc3ccc(OC(F)F)cc3[nH]2)c1OC (stereo not shown) ; response: value
Reply | activators

Ask | Param readout = Modulation of CYP2C9 activity in visual high-throughput screen; param system = CYP2C9 (Homo sapiens); param query = COC(=O)Nc1nc2ccc(C(=O)c3ccccc3)cc2[nH]1 ; response: value
Reply | activators

Ask | Param readout = Modulation of CYP2C9 activity in visual high-throughput screen; param system = CYP2C9 (Homo sapiens); param query = Nc1ccc(S(=O)(=O)c2ccc(N)cc2)cc1 ; response: value
Reply | activators

Ask | Param readout = Modulation of CYP2C9 activity in visual high-throughput screen; param system = CYP2C9 (Homo sapiens); param query = O=C(c1ccc(OCCN2CCCCC2)cc1)c1c(-c2ccc(O)cc2)sc2cc(O)ccc12 ; response: value
Reply | strong inhibitors

Ask | Param readout = Modulation of CYP2C9 activity in visual high-throughput screen; param system = CYP2C9 (Homo sapiens); param query = Nc1ccc(S(=O)(=O)Nc2ccnn2-c2ccccc2)cc1 ; response: value
Reply | strong inhibitors

Ask | Param readout = Modulation of CYP2C9 activity in visual high-throughput screen; param system = CYP2C9 (Homo sapiens); param query = Clc1ccc(COC(Cn2ccnc2)c2ccc(Cl)cc2Cl)c(Cl)c1 (stereo not shown) ; response: value
Reply | strong inhibitors
